src = patent US8476043B2

Target: human sEH (Homo sapiens)
Construct: made in house
Sequence (P34913 1-555): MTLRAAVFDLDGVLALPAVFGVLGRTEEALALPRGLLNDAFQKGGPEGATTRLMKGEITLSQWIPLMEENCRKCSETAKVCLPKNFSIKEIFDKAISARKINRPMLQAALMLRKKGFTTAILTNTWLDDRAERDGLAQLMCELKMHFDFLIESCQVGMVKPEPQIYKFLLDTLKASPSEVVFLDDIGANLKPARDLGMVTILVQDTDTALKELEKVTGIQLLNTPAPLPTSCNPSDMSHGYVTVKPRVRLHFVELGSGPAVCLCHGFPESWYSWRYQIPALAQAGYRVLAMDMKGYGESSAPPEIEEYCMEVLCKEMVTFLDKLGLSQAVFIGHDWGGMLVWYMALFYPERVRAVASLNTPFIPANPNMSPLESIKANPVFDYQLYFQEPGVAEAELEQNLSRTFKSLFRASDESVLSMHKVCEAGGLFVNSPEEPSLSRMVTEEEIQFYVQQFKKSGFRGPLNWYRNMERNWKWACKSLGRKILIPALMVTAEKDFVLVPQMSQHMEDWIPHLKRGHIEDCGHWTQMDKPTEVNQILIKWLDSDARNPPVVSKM
Assay: sEH inhibition, fluorescent assay with cyano(6-methoxy-naphthalen-2-yl)methyl trans-[(3-phenyloxiran-2-yl)methyl]carbonate as substrate
Format: biochemical
pIC50: −log10 of the molar value.

Compound: O=C(NC1CCC(OC2CCCCC2)CC1)NC12CC3CC(CC(C3)C1)C2 (stereo not shown)
pIC50: 8.00

---

Target: mouse sEH (Mus musculus, UniProt P34914)
Construct: made in house
Sequence (P34914 whole entry): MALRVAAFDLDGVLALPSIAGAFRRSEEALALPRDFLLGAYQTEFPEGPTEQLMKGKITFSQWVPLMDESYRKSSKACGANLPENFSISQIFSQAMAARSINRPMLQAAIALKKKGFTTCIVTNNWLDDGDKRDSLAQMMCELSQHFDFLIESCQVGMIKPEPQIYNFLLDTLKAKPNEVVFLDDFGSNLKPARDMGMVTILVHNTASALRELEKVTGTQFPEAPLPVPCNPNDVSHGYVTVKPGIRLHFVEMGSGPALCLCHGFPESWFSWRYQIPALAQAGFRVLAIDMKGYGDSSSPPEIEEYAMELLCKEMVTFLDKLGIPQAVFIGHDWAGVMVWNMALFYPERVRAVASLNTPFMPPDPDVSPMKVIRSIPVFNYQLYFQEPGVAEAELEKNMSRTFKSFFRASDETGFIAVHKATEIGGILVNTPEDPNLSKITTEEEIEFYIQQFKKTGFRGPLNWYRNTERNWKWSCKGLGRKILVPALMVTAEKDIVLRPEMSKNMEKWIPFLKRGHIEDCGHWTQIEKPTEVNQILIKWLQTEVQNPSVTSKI
Experiment: sEH inhibition, spectrometric assay with racemic 4-nitrophenyl-trans-2,3-epoxy-3-phenylpropyl carbonate as substrate
Format: biochemical
Conditions: Table 5; spectrometric-based assay; read-out: Mouse sEH IC50
pIC50: −log10 of the molar value.

Molecule: CS(=O)(=O)NC(=O)CCCCCCCCCCCNC(=O)NC12CC3CC(CC(C3)C1)C2 [Compound 848]
pIC50: 7.30

---

Test: Solubility in water
Assay type: physicochemical
Settings: water; Table 5

Compound: CS(=O)(=O)NC(=O)CCCCCCCCCCCNC(=O)NC12CC3CC(CC(C3)C1)C2 [Compound 848]
solubility, µg/mL: 10

---

Parameter: pIC50. Scope: all listed entries.
Molecular target: human sEH (Homo sapiens)
Construct: made in house
Assay: sEH inhibition, fluorescent assay with cyano(6-methoxy-naphthalen-2-yl)methyl trans-[(3-phenyloxiran-2-yl)methyl]carbonate as substrate
Type: biochemical
Conditions: Table 18b; fluorescent assay with cyano(6-methoxy-naphthalen-2-yl)methyl trans-[(3-phenyloxiran-2-yl)methyl]carbonate as substrate; mean ± SD; read-out: IC50
pIC50: −log10 of the molar value.
Measured metric: pIC50

Molecule: O=C(CCCCCCOCCCCCc1ccccc1)NC12CC3CC(CC(C3)C1)C2 [Compound 1062]
Measured metric: pIC50
Measured number: 8.00
--
Molecule: O=C(CCCCCCOCCCOCCCc1ccccc1)NC12CC3CC(CC(C3)C1)C2 [Compound 1023]
Measured metric: pIC50
Measured number: 7.15
--
Molecule: O=C(Nc1ccc(O)c(Cl)c1)NC12CC3CC(CC(C3)C1)C2 [Compound 1446]
Measured metric: pIC50
Measured number: 8.00
--
Molecule: COCCCCCCCCNC(=O)NC12CC3CC(CC(C3)C1)C2 [Compound 1450]
Measured metric: pIC50
Measured number: 8.00
--
Molecule: O=C(Nc1cccc(C(=O)OC(c2ccccc2)c2ccccc2)c1)NC12CC3CC(CC(C3)C1)C2 [Compound 1182]
Measured metric: pIC50
Measured number: 8.00
--
Molecule: O=C(NC1CCC(Oc2ccc(C(F)(F)F)cn2)CC1)NC12CC3CC(CC(C3)C1)C2 (stereo not drawn) [Compound 1513]
Measured metric: pIC50
Measured number: 7.30
--
Molecule: O=C(CCCCCCOCCCCc1ccccc1)NC12CC3CC(CC(C3)C1)C2 [Compound 1028]
Measured metric: pIC50
Measured number: 8.00
--
Molecule: O=C(NC12CC3CC(CC(C3)C1)C2)N[C@H]1CC[C@H](OC(=O)c2ccc([N+](=O)[O-])cc2)CC1 (relative stereo) [Compound 1076]
Measured metric: pIC50
Measured number: 8.00
--
Molecule: CC(Oc1ccc(NC(=O)NC23CC4CC(CC(C4)C2)C3)cc1)C(=O)O (stereo not drawn) [Compound 1187]
Measured metric: pIC50
Measured number: 8.00
--
Molecule: O=C(NC1CCCC(C(=O)OC(c2ccccc2)c2ccccc2)C1)NC12CC3CC(CC(C3)C1)C2 (stereo not drawn) [Compound 1437]
Measured metric: pIC50
Measured number: 8.00
--
Molecule: O=C(Nc1ccccc1)NC1CCC(OCc2c(F)cccc2F)CC1 (stereo not drawn) [Compound 1147]
Measured metric: pIC50
Measured number: 8.00
--
Molecule: O=C(CC12CC3CC(CC(C3)C1)C2)Nc1cccc(C(=O)O)c1 [Compound 1453]
Measured metric: pIC50
Measured number: 7.52
--
Molecule: O=C(NCCCCCCCCO)NC12CC3CC(CC(C3)C1)C2 [Compound 1449]
Measured metric: pIC50
Measured number: 8.00
--
Molecule: COc1ccc(NC(=O)NC23CC4CC(CC(C4)C2)C3)cc1O [Compound 1191]
Measured metric: pIC50
Measured number: 8.00
--
Molecule: O=C(CCCCCCOCCc1ccccc1)NC12CC3CC(CC(C3)C1)C2 [Compound 1070]
Measured metric: pIC50
Measured number: 7.52
--
Molecule: O=C(O)CCc1cccc(NC(=O)NC23CC4CC(CC(C4)C2)C3)c1 [Compound 1226]
Measured metric: pIC50
Measured number: 8.00
--
Molecule: O=C(Nc1ccc(OCCN2CCOCC2)cc1Cl)NC12CC3CC(CC(C3)C1)C2 [Compound 1448]
Measured metric: pIC50
Measured number: 8.00
--
Molecule: CC(C)N(C(=O)Oc1cccc(-c2ccccc2)c1)C(C)C [Compound 1463]
Measured metric: pIC50
Measured number: 4.92

---

Biological target: human sEH (Homo sapiens, UniProt P34913)
Construct: made in house
Sequence (P34913 1-555): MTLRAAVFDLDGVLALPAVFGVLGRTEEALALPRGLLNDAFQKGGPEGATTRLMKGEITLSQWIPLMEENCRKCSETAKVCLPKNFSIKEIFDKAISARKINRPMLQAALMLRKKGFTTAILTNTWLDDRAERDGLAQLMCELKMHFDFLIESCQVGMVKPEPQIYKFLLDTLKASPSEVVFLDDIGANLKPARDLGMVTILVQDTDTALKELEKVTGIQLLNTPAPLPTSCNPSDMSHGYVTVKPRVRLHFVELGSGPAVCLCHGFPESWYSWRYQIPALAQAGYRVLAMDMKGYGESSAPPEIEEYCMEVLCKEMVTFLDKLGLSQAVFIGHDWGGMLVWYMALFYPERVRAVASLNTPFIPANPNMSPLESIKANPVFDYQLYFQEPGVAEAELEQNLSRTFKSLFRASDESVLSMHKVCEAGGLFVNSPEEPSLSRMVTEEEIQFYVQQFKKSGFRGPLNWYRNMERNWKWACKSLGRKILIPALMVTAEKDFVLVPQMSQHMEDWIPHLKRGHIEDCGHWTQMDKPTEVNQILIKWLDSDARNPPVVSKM
Test: sEH inhibition, spectrometric assay with racemic 4-nitrophenyl-trans-2,3-epoxy-3-phenylpropyl carbonate as substrate
Assay type: biochemical
Conditions: Table 18a; read-out: IC50 Human sEH
pIC50: −log10 of the molar value.

Compound structure: CN(C)c1cccc2c(S(=O)(=O)NCCCOCCCCCNC(=O)NC34CC5CC(CC(C5)C3)C4)cccc12
pIC50: 6.54
--
Compound structure: O=C(NCCCCCCCCCCCCn1ccnc1)NC12CC3CC(CC(C3)C1)C2
pIC50: 4.20
--
Compound structure: CN(C)c1cccc2c(S(=O)(=O)NCCOCCOCCCCCNC(=O)NC34CC5CC(CC(C5)C3)C4)cccc12
pIC50: 7.00
--
Compound structure: CCCCCCCCCCCCNC(=O)N[C@@H]1CCN(c2ccc(S(=O)(=O)N(C)C)c3nonc23)C1
pIC50: 6.92

---

Biological target: human sEH (Homo sapiens, UniProt P34913)
Construct: made in house
Sequence (P34913 1-555): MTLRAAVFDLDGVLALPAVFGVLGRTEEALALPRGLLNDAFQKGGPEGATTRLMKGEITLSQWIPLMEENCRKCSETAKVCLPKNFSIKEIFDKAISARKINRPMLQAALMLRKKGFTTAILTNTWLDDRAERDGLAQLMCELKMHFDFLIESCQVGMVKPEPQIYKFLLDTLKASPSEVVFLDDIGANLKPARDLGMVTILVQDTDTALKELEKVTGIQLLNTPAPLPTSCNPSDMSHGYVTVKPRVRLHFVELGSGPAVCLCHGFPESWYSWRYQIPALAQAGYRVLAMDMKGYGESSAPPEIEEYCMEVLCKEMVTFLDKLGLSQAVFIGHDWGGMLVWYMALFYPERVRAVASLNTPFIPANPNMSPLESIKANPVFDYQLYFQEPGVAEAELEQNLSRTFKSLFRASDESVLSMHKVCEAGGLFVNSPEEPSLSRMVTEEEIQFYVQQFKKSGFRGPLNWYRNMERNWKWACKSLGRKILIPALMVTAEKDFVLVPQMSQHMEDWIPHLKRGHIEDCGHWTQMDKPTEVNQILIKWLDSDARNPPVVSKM
Experiment: sEH inhibition, fluorescent assay with cyano(6-methoxy-naphthalen-2-yl)methyl trans-[(3-phenyloxiran-2-yl)methyl]carbonate as substrate
Type: biochemical
Conditions: Table 18b; fluorescent assay with cyano(6-methoxy-naphthalen-2-yl)methyl trans-[(3-phenyloxiran-2-yl)methyl]carbonate as substrate; mean ± SD; read-out: IC50
Each item that follows carries a reported IC50.
Measured metric: IC50 (nM)

Molecule: CC(C)N(C(=O)Oc1cccc(-c2ccccc2)c1)C(C)C [Compound 1460]
Measured metric: IC50
Units text: nM
Measured number: 10900
--
Molecule: CCOCCOCCOCCCCCCNC(=O)NC12CC3CC(CC(C3)C1)C2 [Compound 1130]
Measured metric: IC50
Units text: nM
Measured number: 10
--
Molecule: CC(=O)Oc1cccc(NC(=O)NC23CC4CC(CC(C4)C2)C3)c1 [Compound 1193]
Measured metric: IC50
Units text: nM
Measured number: 10
--
Molecule: CC(=O)c1cccc(NC(=O)NC23CC4CC(CC(C4)C2)C3)c1 [Compound 1192]
Measured metric: IC50
Units text: nM
Measured number: 10
--
Molecule: CCOCCOCCOCCCCCNC(=O)NC1C2CC3CC(C2)CC1C3 (stereo not drawn) [Compound 1128]
Measured metric: IC50
Units text: nM
Measured number: 10
--
Molecule: O=C(Nc1ccc(O)cc1)NC12CC3CC(CC(C3)C1)C2 [Compound 1183]
Measured metric: IC50
Units text: nM
Measured number: 20
--
Molecule: O=C(Nc1ccc(C(=O)O)cc1)NC12CC3CC(CC(C3)C1)C2 [Compound 1177]
Measured metric: IC50
Units text: nM
Measured number: 10
--
Molecule: O=C(NC1CCC(OC(=O)c2ccccc2)CC1)NC12CC3CC(CC(C3)C1)C2 (stereo not drawn) [Compound 1074]
Measured metric: IC50
Units text: nM
Measured number: 10
--
Molecule: O=C(Nc1ccc(OC(F)(F)C(=O)O)cc1)NC12CC3CC(CC(C3)C1)C2 [Compound 1444]
Measured metric: IC50
Units text: nM
Measured number: 10
--
Molecule: O=C(Nc1ccccc1)NC1CCC(OCc2c(F)cccc2F)CC1 (stereo not drawn) [Compound 1148]
Measured metric: IC50
Units text: nM
Measured number: 10
--
Molecule: CCOC(=O)c1cccc(NC(=O)CC23CC4CC(CC(C4)C2)C3)c1 [Compound 1452]
Measured metric: IC50
Units text: nM
Measured number: 40
--
Molecule: CCOC(=O)COc1ccc(NC(=O)NC23CC4CC(CC(C4)C2)C3)cc1 [Compound 1184]
Measured metric: IC50
Units text: nM
Measured number: 10
--
Molecule: CCC(=O)Oc1cccc(NC(=O)NC23CC4CC(CC(C4)C2)C3)c1 [Compound 1194]
Measured metric: IC50
Units text: nM
Measured number: 10
--
Molecule: Cc1c(COC(=O)N(C(C)C)C(C)C)cccc1-c1ccccc1 [Compound 1465]
Measured metric: IC50
Units text: nM
Measured number: 1230
--
Molecule: O=C(Nc1ccc(Cl)cc1)NC1CCC(Oc2ccc(F)cc2)CC1 (stereo not drawn) [Compound 1514]
Measured metric: IC50
Units text: nM
Measured number: 10
--
Molecule: O=C(CC12CC3CC(CC(C3)C1)C2)NC12CC3CC(CC(O)(C3)C1)C2 [Compound 1064]
Measured metric: IC50
Units text: nM
Measured number: 40
--
Molecule: O=C(NCCCCCOCCCN1CCS(=O)(=O)CC1)NC12CC3CC(CC(C3)C1)C2 [Compound 1131]
Measured metric: IC50
Units text: nM
Measured number: 10
--
Molecule: COCC(=O)c1ccc(OC2CCC(NC(=O)NC34CC5CC(CC(C5)C3)C4)CC2)cc1 (stereo not drawn) [Compound 1470]
Measured metric: IC50
Units text: nM
Measured number: 10
